The reported measurements were obtained from paper PMC11103505.

- test system: recombinant human AXL protein (human, UniProt P30530 26-451)
- Sequence (P30530 26-451): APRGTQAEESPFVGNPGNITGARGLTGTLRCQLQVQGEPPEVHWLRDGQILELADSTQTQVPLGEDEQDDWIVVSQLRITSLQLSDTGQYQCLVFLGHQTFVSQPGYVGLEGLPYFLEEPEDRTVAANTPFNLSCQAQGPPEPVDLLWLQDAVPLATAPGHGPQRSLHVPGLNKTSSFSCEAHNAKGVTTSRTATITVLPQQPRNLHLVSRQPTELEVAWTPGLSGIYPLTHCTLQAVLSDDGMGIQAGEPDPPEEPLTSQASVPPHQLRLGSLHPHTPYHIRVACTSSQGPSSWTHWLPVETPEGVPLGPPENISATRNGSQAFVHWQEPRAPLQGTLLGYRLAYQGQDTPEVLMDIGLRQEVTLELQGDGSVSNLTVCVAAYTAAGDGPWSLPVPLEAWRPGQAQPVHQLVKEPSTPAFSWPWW
- protocol details: SPR
measured quantity: Kd (nM)

| binder | Kd, nM |
| --- | --- |
| anti-AXL single domain antibody sdAb25 (VHH) VHH: QVQLQESGGGLVQPGGSLRLSCVASGSIFSIYAMGWYRQAPGKQRELVAGISSGGSTNYADSVKGRFTISRDNAKNTVYLQMNSLKPEDTAVYYCNYDLVEAVTGEYDYWGQGTQVTVSS | 9.1 |
| anti-AXL single domain antibody sdAb4 (VHH) VHH: QVQLQESGGGLVQPGGSLRLSCVASGSIFSIYAMGWYRQAPGKQRELVAGISSGGSTNYADSVKGRFTISRDNAKNTVYLQMNSLKPEDTAVYYCNYDLVKAVTGEYDYWGQGTQVTVSS | 10.8 |

A. anti-AXL single domain antibody sdAb12 (VHH) VHH: QVQLQESGGGLVKPGGSLRLSCVASGSIFSIYAMGWYRQAPGKQRELVAGISSGGSTNYADSVKGRFTISRDNAKNTVYLQMNSLKPEDTAVYYCNYDLVEAVTGEYDYWGQGTQVTVSS
B. anti-AXL single domain antibody sdAb19 (VHH) VHH: QVQLQESGGGMVQPGGSLRLSCAASGFTFTSYDMTWLRQTPGKGPEWVSTISTGGLRTYYGNSVKGRFIISRDNTKNTLYLQMNSLKPEDTALYYCARGPFTVADPRRGQGTQVTVSS
// returns A or B , whichever has the lower Kd Label of pick, please.
A
